Provenance of the data: PubChem BioAssay (Tox21)

Assay: Human pregnane X receptor (PXR) small molecule agonists, qHTS cell viability counter screen (AID 1346977); note: nearly all actives have a fitted effect of over 50% in size
Conditions: PXR-Luc HepG2 viability, CellTiter-Fluor, 24 h; series mostly up to 92.4 µM
Inconclusive results are not listed. Calls of active or inactive are those of the source. Calls come from the whole dose curve; as a rule, active = well fitted cell-killing curve with a large enough effect in the repeat runs; inconclusive = weak or mixed curves, or effect the other way; inactive = flat fitted curve, though single readings scatter.
Bench note: report the call from active, inactive

Past entries and their recorded results:
COMPOUND | CLASS_NAME
CCCC(=O)c1cc(O)c(O)cc1O | active
Brc1cc(Br)cc(Br)c1 | inactive
[Cl][Dy]([Cl])[Cl] | inactive
COCCC(=O)OC | inactive
CC(C)(C)c1ccc(OC2CCCCC2O)cc1 (stereo not drawn) | inactive

Kindly provide the recorded test outcome for the following compound: `C=Cc1ccc(O)c(OC)c1`
inactive

Hi team, can someone confirm the assay call for `Nc1ccc(F)c([N+](=O)[O-])c1` ?
inactive

Assay result, entry `CSc1nnc(C(C)(C)C)c(=O)[nH]1` — outcome?
inactive

###

Assay: qHTS assay to identify small molecule antagonists of the estrogen related receptor (ERR) signaling pathway - cell viability counter screen (AID 1224818);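 note: viability measured after 17.5 h of compound exposure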
Settings: ERR reporter cell line viability counter screen; series mostly up to 46.1 µM
Records with an inconclusive call do not appear. Activity calls are given as the source filed them. Calls follow the shape of the dose curve; as a rule, active = well fitted cell-killing curve with a large enough effect in the repeat runs; inconclusive = weak or mixed curves; inactive = flat fitted curve, though single readings scatter.
Your response should consist of one outcome taken from TRUE for active, FALSE for inactive

Please review the following examples before continuing.
COMPOUND | CLASS_NAME
C[C@@H]1C(=O)NC2=Nc3cccc(Cl)c3CN21 | FALSE
O=C(O)C1=CCCNC1 | FALSE
O=Nc1c(-c2c(O)[nH]c3cc(Br)ccc23)[nH]c2ccccc12 | TRUE
COc1ccc2c(c1)CCC1C2CC[C@@]2(C)C1CC[C@@H]2NCCCCCCN1C(=O)C=CC1=O (stereo partly drawn) | FALSE
NCCCCC(=O)O | FALSE
NC1CONC1=O (stereo not drawn) | FALSE
O=C(O)c1cc(=O)c2ccccc2[nH]1 | FALSE
O=c1onc2n1-c1cc(Br)ccc1OC2 | FALSE
NC(N)=NCCCCN=C(N)N | FALSE
NC1(C(=O)O)CCc2cc(C(=O)O)ccc21 (stereo not drawn) | FALSE

Hi team, can someone confirm the assay call for `COc1ccccc1N1CCN(CCCNc2c(C)c(=O)n(C)c(=O)n2C)CC1` ?
FALSE

Hi team, can someone confirm the assay call for NCC(O)c1ccc(O)c(O)c1 (stereo not drawn) ?
FALSE

Tell me the recorded outcome of this test for `O=C1NC(=O)C(c2ccccc2[N+](=O)[O-])=C1Nc1ccc(O)c(Cl)c1` .
FALSE

###

Assay: qHTS assay to identify small molecule antagonists of the estrogen related receptor (ERR) signaling pathway from Tox21 library (AID 1224848); note: nearly all actives have a fitted effect of over 50% in size
Details: ERR reporter cell line, luciferase antagonist mode, 18 h; series mostly up to 92.4 µM
Inconclusive results are not listed. The source made the active and inactive calls. Calls come from the whole dose curve; as a rule, active = well fitted inhibition curve with a large enough effect in the repeat runs; inconclusive = weak or mixed curves; inactive = no such curve, though single readings can be large or run the other way.
Your response should consist of one outcome taken from active, inactive

Here's what some known entries look like.
COMPOUND_STRUCTURE | CLASS_NAME
COc1cc([C@@H]2c3cc4c(cc3[C@@H](O[C@@H]3O[C@@H]5CO[C@@H](C)O[C@H]5[C@H](O)[C@H]3O)[C@H]3COC(=O)[C@H]23)OCO4)cc(OC)c1O | active
CC(=O)Nc1ccc(N=Nc2cc(C)ccc2O)cc1 | inactive
C1CCSC1 | inactive
CC(O)(c1ccc(Cl)cc1)c1ccc(Cl)cc1 | active
COc1ccc(OC)c(N=Nc2c(O)ccc3ccccc23)c1 | inactive
SC1CCCCC1 | inactive

Attention now turns to another entry.
Fill in: this test's call for `CN(C[C@@H](CC[N+]12CCC(C3CCCCC3)(CC1)CC2)c1ccc(Cl)c(Cl)c1)C(=O)c1cc(C(F)(F)F)cc(C(F)(F)F)c1` is ___
active

###

Test: qHTS assay for small molecule agonists of the p53 signaling pathway (AID 651631); note: nearly all actives have a fitted effect of over 15% in size; note: potency is the fitted concentration of half-maximal effect
Settings: HCT-116 p53RE-bla reporter, beta-lactamase FRET ratio, 16 h; series mostly up to 73.3 µM
Inconclusive results are not listed. The source made the active and inactive calls. The call rests on the fitted dose curve.
RECORDED_METRIC: Potency

Worked cases, answers included:
COMPOUND | RECORDED_METRIC | MEASURED_VALUE
Oc1ccc(Cl)c2c1CCC2 | Potency | inactive
CCCOC(=O)c1ccccc1O | Potency | inactive
CO[C@H]1C[C@H](O[C@H]2[C@H](C)[C@@H](O[C@@H]3O[C@H](C)C[C@H](N(C)C)[C@H]3O)[C@@H](C)C[C@]3(CO3)C(=O)[C@H](C)[C@@H](O)[C@@H](C)[C@@H](C)OC(=O)[C@@H]2C)O[C@@H](C)[C@@H]1O | Potency | inactive
CCCCCCCCCCCCCC(=O)OCC(COP(=O)([O-])OCC[N+](C)(C)C)OC(=O)CCCCCCCCCCCCC (stereo not given) | Potency | inactive

I am curious: what Potency value has been reported for S=C1NC=NC2N=CNC12 (stereo not given) ?
3.44 µM (active)

For the compound shown here, NC(=O)c1cc[n+](CC2=C(C(=O)O)N3C(=O)[C@@H](NC(=O)C(c4ccccc4)S(=O)(=O)[O-])[C@H]3SC2)cc1 (stereo not given in full) , give the reported Potency.
inactive

# lookup: Potency of `NS(=O)(=O)c1cc(Cl)c(Cl)c(S(N)(=O)=O)c1`
inactive

###

Experiment: qHTS assay for small molecule agonists of the p53 signaling pathway - cell viability (AID 651633); note: nearly all actives have a fitted effect of over 30% in size
Settings: p53RE-bla HCT-116 viability, ATP luminescence, 16 h; series mostly up to 83.3 µM
Results filed as inconclusive are left out. The source made the active and inactive calls. Calls follow the shape of the full dose curve. Positions of bridges follow the written chain, without caps; N, C: chain ends. Non-standard residues stand in square brackets, D forms with d. Residues, ends and D or L forms follow the SMILES beside them. *: point of attachment. X1 = CC[C@@H](C)[C@@H](N)C1=N[C@H](C(=O)*)CS1; d(aIle) = CC[C@H](C)[C@@H](N)C(=O)O; dOrn = NCCC[C@@H](N)C(=O)O
Outcomes you can answer with include only these: T (active), F (inactive)

Please review the following examples before continuing.
MOLECULE | CLASS_NAME
C=C1C(=C/C=C2\CCC[C@]3(C)[C@@H]([C@H](C)CCCC(C)C)CC[C@@H]23)C[C@@H](O)C[C@@H]1O | T
O=C1c2ccccc2CN2C(=O)c3ccccc3CN12 | F
O=P(O)(O)OP(=O)(O)OP(=O)(O)O | F
CO/N=C(\C(=O)N[C@@H]1C(=O)N2C(C(=O)O)=C(CSc3cnns3)CS[C@H]12)c1csc(N)n1 | F
CCCCCCCCCC(=O)NO | F
NC(=O)c1cc[n+](CC2=C(C(=O)O)N3C(=O)[C@@H](NC(=O)C(c4ccccc4)S(=O)(=O)[O-])[C@H]3SC2)cc1 (stereo partly drawn) | F
O=C(N[C@H](CO)[C@H](O)c1ccc([N+](=O)[O-])cc1)C(Cl)Cl | F

Attention now turns to another entry.
Hi, sorry to bother you, what did the test record for CC[C@@H](C)[C@@H](N)C1=N[C@H](C(=O)N[C@@H](CC(C)C)C(=O)N[C@@H](CCC(=O)O)C(=O)N[C@@H](C(=O)N[C@@H]2CCCCNC(=O)[C@@H](CC(N)=O)NC(=O)[C@@H](CC(=O)O)NC(=O)[C@@H](Cc3cnc[nH]3)NC(=O)[C@@H](Cc3ccccc3)NC(=O)[C@@H]([C@H](C)CC)NC(=O)[C@@H](CCCN)NC2=O)[C@@H](C)CC)CS1 (X1-LE[d(aIle)][dK][dOrn][dI][dF][dH][dD][dN]; lactam 4-C) ?
F

###

Assay: qHTS assay for small molecules that induce genotoxicity in human embryonic kidney cells expressing luciferase-tagged ATAD5 (AID 651632); note: nearly all actives have a fitted effect of over 15% in size
Conditions: HEK293T ATAD5-luciferase induction, 16 h; series mostly up to 83.3 µM
Records with an inconclusive call do not appear. Active and inactive are the calls of the source. The call rests on the fitted dose curve; in most records, active means well fitted activation curve with a large enough effect in the repeat runs; inconclusive means weak or mixed curves; inactive means no such curve, though single readings can be large or run the other way.
One label from this list, please: True = active, False = inactive

What outcome does the record of this test show for `CCN(CC)CCn1c(=O)c(Cc2ccc(OC)cc2)nc2ccccc21` ?
False

How did this test come out for `CO/N=C(\C(=O)N[C@@H]1C(=O)N2C(C(=O)[O-])=C(C[n+]3cccc4c3CCC4)CS[C@H]12)c1csc(N)n1` ?
False

Could you kindly confirm the outcome this assay logged for `CC1(C)S[C@@H]2[C@H](NC(=O)[C@H](N)c3ccc(O)cc3)C(=O)N2[C@H]1C(=O)O` ?
False

###

Assay: A CellTox Green Cytotoxicity Assay to monitor cytotoxicity in HEK293 cells - 40 hour (AID 1224871); note: nearly all actives have a fitted effect of over 45% in size
Conditions: CellTox Green fluorescence; series mostly up to 76.8 µM
Inconclusive results are not listed. The source made the active and inactive calls. The call rests on the fitted dose curve; in most records, active means well fitted activation curve with a large enough effect in the repeat runs; inconclusive means weak or mixed curves; inactive means flat fitted curve, though single readings scatter.
In this exercise, the only acceptable responses are active, inactive

See these solved cases before continuing.
COMPOUND | CLASS_NAME
CC(=O)Nc1ccc(N=Nc2cc(C)ccc2O)cc1 | inactive
NC(=O)c1ccccc1Cl | inactive
O=C(c1ccccc1)c1ccc(Cl)cc1 | inactive
CCOC(=O)OC(=O)OCC | inactive

Hi, do you know how `c1ccc(-c2nc3ccccc3[nH]2)cc1` came out in this test?
inactive

Which outcome did this test record for the compound `CN1CCN(c2ccccc2/C=C2\SCCN(c3ccc(Cl)c(Cl)c3)C2=O)CC1` ?
active

Entry NC(=O)C1CO1 (stereo not given) : call = ?
inactive

Recorded test outcome, item `O[Si](c1ccccc1)(c1ccccc1)c1ccccc1`
inactive

Assay result, entry `C=CC(C)(C)O` — outcome?
inactive
